Target: T1, DcR3 FL-Fc (R&D Systems, Inc.) (human, UniProt O95407 30-300)
T1 construct: Bought product made in insect cells; also called DcR3-Fc (R&D Systems, Inc.); DcR3 FL-Fc (IgG1)
T1 sequence: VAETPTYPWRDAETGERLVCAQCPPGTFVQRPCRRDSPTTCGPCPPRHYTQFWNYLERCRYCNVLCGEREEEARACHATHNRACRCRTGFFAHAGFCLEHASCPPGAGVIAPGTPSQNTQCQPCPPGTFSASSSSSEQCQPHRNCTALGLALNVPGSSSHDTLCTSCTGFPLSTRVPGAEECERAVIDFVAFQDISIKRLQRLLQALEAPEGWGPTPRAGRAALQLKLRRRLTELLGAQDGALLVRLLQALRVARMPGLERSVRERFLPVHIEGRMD
Assay: SPR, binder captured
measured_parameter: koff (s⁻¹)
Respond numerically; units are s⁻¹ and should not be typed.

Reference set, count: 2
1) soluble recombinant of cynomolgus monkey TL1A (His6, GS linker, Leu72-Leu251) (ligand, also called His6-cynoTL1A) HHHHHHGGGSGGGSGGGSLKGQEFAPSHQQVYAPLRADGDKPRAHLTVVRQTPTQHLKNQFPALHWEHELGLAFTKNRMNYTNKFLLIPESGDYFVYSQVTFRGMTSECSEIRQAGRPNKPDSITVVITKVTDSYPEPTQLLMGTKSVCEVGSNWFQPIYLGAMFSLQEGDKLMVNVSDISLVDYTKEDKTFFGAFLL
0.00035
2) soluble recombinant of human LIGHT (His10, GS linker, Asp74-Val240) (ligand) HHHHHHHHHHGGGSGGGSGGGSIEGRDGPAGSWEQLIQERRSHEVNPAAHLTGANSSLTGSGGPLLWETQLGLAFLRGLSYHDGALVVTKAGYYYIYSKVQLGGVGCPLGLASTITHGLYKRTPRYPEELELLVSQQSPCGRATSSSRVWWDSSFLGGVVHLEAGEKVVVRVLDERLVRLRDGTRSYFGAFMV
0.0004

I would be grateful if you could share the reported koff for soluble recombinant of mouse FasL (His6, Pro132-Leu279) (ligand) HHHHHHPSTPSEKKEPRSVAHLTGNPHSRSIPLEWEDTYGTALISGVKYKKGGLVINETGLYFVYSKVYFRGQSCNNQPLNHKVYMRNSKYPEDLVLMEEKRLNYCTTGQIWAHSSYLGAVFNLTSADHLYVNISQLSLINFEESKTFFGLYKL .
0.0097

Provenance of the data: patent US20220340642A1
